These measurements were taken from ChEMBL document CHEMBL2439983.

biological target: Protein deacetylase HDAC6 (Homo sapiens); experiment: Inhibition of human recombinant HDAC6 expressed in baculovirus infected insect high5 cells using Boc-Lys (epsilon-acetyl)-AM) as substrate after 3 to 24 hrs by fluorescence assay
Sequence (Q9UBN7 whole entry): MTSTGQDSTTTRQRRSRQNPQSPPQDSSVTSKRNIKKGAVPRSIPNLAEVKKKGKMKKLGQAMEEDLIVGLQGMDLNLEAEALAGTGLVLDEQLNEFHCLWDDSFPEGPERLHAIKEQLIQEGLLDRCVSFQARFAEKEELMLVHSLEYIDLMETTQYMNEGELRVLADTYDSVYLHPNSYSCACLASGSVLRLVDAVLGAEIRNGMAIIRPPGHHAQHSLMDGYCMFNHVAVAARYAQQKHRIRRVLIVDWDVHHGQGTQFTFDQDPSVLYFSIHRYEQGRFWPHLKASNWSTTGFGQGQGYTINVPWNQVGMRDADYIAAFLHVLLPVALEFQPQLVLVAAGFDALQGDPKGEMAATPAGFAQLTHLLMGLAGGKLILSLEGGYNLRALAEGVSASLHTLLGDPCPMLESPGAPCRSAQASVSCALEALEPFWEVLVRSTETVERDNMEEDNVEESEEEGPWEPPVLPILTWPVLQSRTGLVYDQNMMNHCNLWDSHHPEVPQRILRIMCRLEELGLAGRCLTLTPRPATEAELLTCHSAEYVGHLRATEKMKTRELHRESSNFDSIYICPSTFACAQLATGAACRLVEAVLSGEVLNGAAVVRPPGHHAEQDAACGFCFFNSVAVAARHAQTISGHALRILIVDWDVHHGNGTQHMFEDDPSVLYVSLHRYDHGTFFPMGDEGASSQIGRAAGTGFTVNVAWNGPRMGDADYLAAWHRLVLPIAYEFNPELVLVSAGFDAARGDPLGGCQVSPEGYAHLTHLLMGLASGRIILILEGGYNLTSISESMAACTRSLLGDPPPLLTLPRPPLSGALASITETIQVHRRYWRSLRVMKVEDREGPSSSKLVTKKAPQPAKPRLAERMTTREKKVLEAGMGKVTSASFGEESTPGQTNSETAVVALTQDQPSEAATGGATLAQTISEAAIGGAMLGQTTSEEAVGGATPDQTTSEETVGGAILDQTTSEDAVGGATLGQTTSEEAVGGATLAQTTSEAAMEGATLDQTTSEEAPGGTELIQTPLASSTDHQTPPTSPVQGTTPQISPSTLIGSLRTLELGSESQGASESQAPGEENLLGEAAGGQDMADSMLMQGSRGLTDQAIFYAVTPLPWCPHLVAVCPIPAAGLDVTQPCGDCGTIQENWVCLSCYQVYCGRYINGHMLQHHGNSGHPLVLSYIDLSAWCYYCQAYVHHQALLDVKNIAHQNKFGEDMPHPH
pIC50: −log10 of the molar value.
# key: entry, value: pIC50
reported endpoint: pIC50

>>> value_reported("COc1cc([C@@H]2c3cc4c(cc3[C@@H](Nc3ccccc3OCCCCC(=O)NO)[C@H]3COC(=O)[C@H]23)OCO4)cc(OC)c1O")
7.08
>>> value_reported("COc1cc([C@@H]2c3cc4c(cc3[C@@H](Nc3ccc(OCCCCCCCC(=O)NO)cc3)[C@H]3COC(=O)[C@H]23)OCO4)cc(OC)c1O")
7.28
>>> value_reported("COc1cc([C@@H]2c3cc4c(cc3[C@@H](Nc3ccc(OCCCCCCC(=O)NO)cc3)[C@H]3COC(=O)[C@H]23)OCO4)cc(OC)c1O")
7.80
>>> value_reported("COc1cc([C@@H]2c3cc4c(cc3[C@@H](Nc3cccc(OCCCCC(=O)NO)c3)[C@H]3COC(=O)[C@H]23)OCO4)cc(OC)c1O")
7.38
>>> value_reported("COc1cc([C@@H]2c3cc4c(cc3[C@@H](Nc3ccccc3OCCCCCCC(=O)NO)[C@H]3COC(=O)[C@H]23)OCO4)cc(OC)c1O")
7.57

---

molecular target: Histone deacetylase 3 (Homo sapiens, UniProt O15379); experiment: Inhibition of human recombinant HDAC3 expressed in baculovirus infected insect high5 cells using Ac-Lys-Tyr-Lys (epsilon-acetyl)-AMC as substrate after 3 to 24 hrs by fluorescence assay
Sequence (O15379 whole entry): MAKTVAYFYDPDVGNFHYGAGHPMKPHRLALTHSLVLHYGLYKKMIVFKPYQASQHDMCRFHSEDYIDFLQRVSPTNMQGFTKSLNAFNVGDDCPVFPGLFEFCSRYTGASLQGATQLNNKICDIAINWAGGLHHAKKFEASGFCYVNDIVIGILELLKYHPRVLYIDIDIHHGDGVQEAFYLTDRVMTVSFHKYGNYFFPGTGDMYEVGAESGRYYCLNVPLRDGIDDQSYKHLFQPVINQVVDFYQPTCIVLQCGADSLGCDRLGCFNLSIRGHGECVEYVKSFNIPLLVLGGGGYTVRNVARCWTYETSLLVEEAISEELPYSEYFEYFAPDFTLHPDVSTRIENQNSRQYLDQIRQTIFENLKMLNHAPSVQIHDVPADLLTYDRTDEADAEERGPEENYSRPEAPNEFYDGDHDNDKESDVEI
reported endpoint: IC50 (nM)

>>> value_reported("COc1cc([C@@H]2c3cc4c(cc3[C@@H](Nc3ccccc3OCCCC(=O)NO)[C@H]3COC(=O)[C@H]23)OCO4)cc(OC)c1O")
1440
>>> value_reported("COc1cc([C@@H]2c3cc4c(cc3[C@@H](Nc3cccc(OCCCCCC(=O)NO)c3)[C@H]3COC(=O)[C@H]23)OCO4)cc(OC)c1O")
81
>>> value_reported("COc1cc([C@@H]2c3cc4c(cc3[C@@H](Nc3ccc(OCCCCCCC(=O)Nc5ccccc5N)cc3)[C@H]3COC(=O)[C@H]23)OCO4)cc(OC)c1O")
11600
>>> value_reported("COc1cc([C@@H]2c3cc4c(cc3[C@@H](Nc3ccc(OCCCCCCCC(=O)NO)cc3)[C@H]3COC(=O)[C@H]23)OCO4)cc(OC)c1O")
53
>>> value_reported("COc1cc([C@@H]2c3cc4c(cc3[C@@H](Nc3ccccc3OCCCCCC(=O)NO)[C@H]3COC(=O)[C@H]23)OCO4)cc(OC)c1O")
188
>>> value_reported("COc1cc([C@@H]2c3cc4c(cc3[C@@H](Nc3cccc(NC(=O)CCCCCCC(=O)NO)c3)[C@H]3COC(=O)[C@H]23)OCO4)cc(OC)c1O")
130
>>> value_reported("COc1cc([C@@H]2c3cc4c(cc3[C@@H](Nc3cccc(OCCCCC(=O)NO)c3)[C@H]3COC(=O)[C@H]23)OCO4)cc(OC)c1O")
111
>>> value_reported("COc1cc([C@@H]2c3cc4c(cc3[C@@H](Nc3ccc(OCCCCC(=O)NO)cc3)[C@H]3COC(=O)[C@H]23)OCO4)cc(OC)c1O")
242
>>> value_reported("COc1cc([C@@H]2c3cc4c(cc3[C@@H](Nc3ccc(OCCCC(=O)NO)cc3)[C@H]3COC(=O)[C@H]23)OCO4)cc(OC)c1O")
193
>>> value_reported("COc1cc([C@@H]2c3cc4c(cc3[C@@H](Nc3ccc(NC(=O)CCCCCC(=O)NO)cc3)[C@H]3COC(=O)[C@H]23)OCO4)cc(OC)c1O")
520
>>> value_reported("COc1cc([C@@H]2c3cc4c(cc3[C@@H](Nc3ccccc3OCCCCCCC(=O)NO)[C@H]3COC(=O)[C@H]23)OCO4)cc(OC)c1O")
155
>>> value_reported("COc1cc([C@@H]2c3cc4c(cc3[C@@H](Nc3cccc(OCCCCCCC(=O)NO)c3)[C@H]3COC(=O)[C@H]23)OCO4)cc(OC)c1O")
9.6
>>> value_reported("COc1cc([C@@H]2c3cc4c(cc3[C@@H](Nc3cccc(NC(=O)CCCCCC(=O)NO)c3)[C@H]3COC(=O)[C@H]23)OCO4)cc(OC)c1O")
590

---

target: Histone deacetylase 1 (Homo sapiens, UniProt Q13547); experiment: Inhibition of human recombinant HDAC1 expressed in baculovirus infected insect high5 cells using Ac-Lys-Tyr-Lys (epsilon-acetyl)-AMC as substrate after 3 to 24 hrs by fluorescence assay
Sequence (Q13547 whole entry): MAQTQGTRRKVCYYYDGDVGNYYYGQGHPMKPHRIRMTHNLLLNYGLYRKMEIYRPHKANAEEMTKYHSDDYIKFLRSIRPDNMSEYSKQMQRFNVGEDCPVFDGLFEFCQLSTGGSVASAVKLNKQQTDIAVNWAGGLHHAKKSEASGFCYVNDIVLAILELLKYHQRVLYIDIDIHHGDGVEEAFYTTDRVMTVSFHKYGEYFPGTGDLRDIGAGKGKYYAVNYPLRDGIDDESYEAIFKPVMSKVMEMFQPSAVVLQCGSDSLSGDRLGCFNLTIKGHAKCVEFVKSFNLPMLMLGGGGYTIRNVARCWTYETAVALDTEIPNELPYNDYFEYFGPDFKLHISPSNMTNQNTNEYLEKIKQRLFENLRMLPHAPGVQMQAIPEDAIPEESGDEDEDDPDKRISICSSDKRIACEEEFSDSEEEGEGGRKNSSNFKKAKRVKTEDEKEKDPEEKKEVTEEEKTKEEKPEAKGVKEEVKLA
Simple rule here: IC50 less than 200 nM is 1.0, otherwise 0.0.

>>> assigned_label("COc1cc([C@@H]2c3cc4c(cc3[C@@H](Nc3ccccc3OCCCCCCCC(=O)NO)[C@H]3COC(=O)[C@H]23)OCO4)cc(OC)c1O")
1.0
>>> assigned_label("COc1cc([C@@H]2c3cc4c(cc3[C@@H](Nc3ccccc3OCCCCCC(=O)NO)[C@H]3COC(=O)[C@H]23)OCO4)cc(OC)c1O")
1.0
>>> assigned_label("COc1cc([C@@H]2c3cc4c(cc3[C@@H](Nc3cccc(OCCCCC(=O)NO)c3)[C@H]3COC(=O)[C@H]23)OCO4)cc(OC)c1O")
1.0
>>> assigned_label("COc1cc([C@@H]2c3cc4c(cc3[C@@H](Nc3ccc(NC(=O)CCCCCCC(=O)NO)cc3)[C@H]3COC(=O)[C@H]23)OCO4)cc(OC)c1O")
0.0
>>> assigned_label("COc1cc([C@@H]2c3cc4c(cc3[C@@H](Nc3cccc(NC(=O)CCCCCCC(=O)NO)c3)[C@H]3COC(=O)[C@H]23)OCO4)cc(OC)c1O")
1.0
>>> assigned_label("COc1cc([C@@H]2c3cc4c(cc3[C@@H](Nc3ccc(NC(=O)CCCCC(=O)NO)cc3)[C@H]3COC(=O)[C@H]23)OCO4)cc(OC)c1O")
0.0
>>> assigned_label("COc1cc([C@@H]2c3cc4c(cc3[C@@H](Nc3ccc(OCCCC(=O)NO)cc3)[C@H]3COC(=O)[C@H]23)OCO4)cc(OC)c1O")
0.0
>>> assigned_label("COc1cc([C@@H]2c3cc4c(cc3[C@@H](Nc3cccc(OCCCCCC(=O)NO)c3)[C@H]3COC(=O)[C@H]23)OCO4)cc(OC)c1O")
1.0
>>> assigned_label("COc1cc([C@@H]2c3cc4c(cc3[C@@H](Nc3ccccc3OCCCCC(=O)NO)[C@H]3COC(=O)[C@H]23)OCO4)cc(OC)c1O")
0.0
>>> assigned_label("COc1cc([C@@H]2c3cc4c(cc3[C@@H](Nc3cccc(NC(=O)CCCCC(=O)NO)c3)[C@H]3COC(=O)[C@H]23)OCO4)cc(OC)c1O")
0.0
>>> assigned_label("COc1cc([C@@H]2c3cc4c(cc3[C@@H](Nc3ccccc3OCCCC(=O)NO)[C@H]3COC(=O)[C@H]23)OCO4)cc(OC)c1O")
0.0
>>> assigned_label("COc1cc([C@@H]2c3cc4c(cc3[C@@H](Nc3ccc(OCCCCCCC(=O)Nc5ccccc5N)cc3)[C@H]3COC(=O)[C@H]23)OCO4)cc(OC)c1O")
0.0
>>> assigned_label("COc1cc([C@@H]2c3cc4c(cc3[C@@H](Nc3cccc(OCCCCCCC(=O)NO)c3)[C@H]3COC(=O)[C@H]23)OCO4)cc(OC)c1O")
1.0

---

# key: entry, value: IC50
molecular target: Histone deacetylase 1 (Homo sapiens, UniProt Q13547); experiment: Inhibition of human recombinant HDAC1 expressed in baculovirus infected insect high5 cells using Ac-Lys-Tyr-Lys (epsilon-acetyl)-AMC as substrate after 3 to 24 hrs by fluorescence assay
reported endpoint: IC50 (nM)

>>> value_reported("COc1cc([C@@H]2c3cc4c(cc3[C@@H](Nc3cccc(OCCCCCCCC(=O)NO)c3)[C@H]3COC(=O)[C@H]23)OCO4)cc(OC)c1O")
39
>>> value_reported("COc1cc([C@@H]2c3cc4c(cc3[C@@H](Nc3ccc(OCCCCCC(=O)NO)cc3)[C@H]3COC(=O)[C@H]23)OCO4)cc(OC)c1O")
207
>>> value_reported("COc1cc([C@@H]2c3cc4c(cc3[C@@H](Nc3ccc(NC(=O)CCCCCC(=O)NO)cc3)[C@H]3COC(=O)[C@H]23)OCO4)cc(OC)c1O")
590
>>> value_reported("COc1cc([C@@H]2c3cc4c(cc3[C@@H](Nc3ccc(OCCCCCCC(=O)NO)cc3)[C@H]3COC(=O)[C@H]23)OCO4)cc(OC)c1O")
29
>>> value_reported("COc1cc([C@@H]2c3cc4c(cc3[C@@H](Nc3ccc(OCCCCCCCC(=O)NO)cc3)[C@H]3COC(=O)[C@H]23)OCO4)cc(OC)c1O")
87
>>> value_reported("COc1cc([C@@H]2c3cc4c(cc3[C@@H](Nc3cccc(OCCCC(=O)NO)c3)[C@H]3COC(=O)[C@H]23)OCO4)cc(OC)c1O")
385
